Organism: Rattus norvegicus
Experiment: Open TG-GATES - Regimen: Daily Repeat
Format: toxicity, organism-based, Sprague-Dawley
Parameters: regimen Daily Repeat, gender Male, age 6 weeks
Settings: in vivo, po, 100 mg/kg, […], tissue Blood, route gavage, dose level Low, time 7 day
So I've got a bunch of compounds here, and I need their Hb values.
Use g/dL as the unit, but write only the number.

Lookup: Please supply the value of reported Hb for the item "CCOc1ccc(NC(C)=O)cc1"
Found: 14.1

Lookup: Please supply the value of reported Hb for the item "Cc1nnc2n1-c1ccc(Cl)cc1C(c1ccccc1Cl)=NC2"
Found: 13.9

Lookup: Please supply the value of reported Hb for the item "O=C(OC[C@H]1O[C@@H](OC(=O)c2cc(O)c(O)c(OC(=O)c3cc(O)c(O)c(O)c3)c2)[C@H](OC(=O)c2cc(O)c(O)c(OC(=O)c3cc(O)c(O)c(O)c3)c2)[C@@H](OC(=O)c2cc(O)c(O)c(OC(=O)c3cc(O)c(O)c(O)c3)c2)[C@@H]1OC(=O)c1cc(O)c(O)c(OC(=O)c2cc(O)c(O)c(O)c2)c1)c1cc(O)c(O)c(OC(=O)c2cc(O)c(O)c(O)c2)c1"
Found: 13.4

Lookup: Please supply the value of reported Hb for the item "CNC(=C[N+](=O)[O-])NCCSCc1ccc(CN(C)C)o1"
Found: 14

Lookup: Please supply the value of reported Hb for the item "COC(=O)C1=C(C)NC(C)=C(C(=O)OC)C1c1ccccc1[N+](=O)[O-]"
Found: 13.8

Lookup: Please supply the value of reported Hb for the item "CN/C(=N/CCSCc1nc[nH]c1C)NC#N"
Found: 13.5

---

Species on record: Rattus norvegicus
Experiment: Open TG-GATES - Regimen: Daily Repeat
Format: toxicity, organism-based, Sprague-Dawley
Set-up: regimen Daily Repeat, gender Male, age 6 weeks
Settings: in vivo, po, 300 mg/kg, 72 h, tissue Plasma, route gavage, dose level Middle, time 3 day
So I've got a bunch of compounds here, and I need their RALB values.
Use g/dL as the unit, but write only the number.

Lookup: Please supply the value of reported RALB for the item "CNC(=C[N+](=O)[O-])NCCSCc1ccc(CN(C)C)o1"
Found: 3.4

Lookup: Please supply the value of reported RALB for the item "COC(=O)C1=C(C)NC(C)=C(C(=O)OC)C1c1ccccc1[N+](=O)[O-]"
Found: 2.6

Lookup: Please supply the value of reported RALB for the item "Cc1nnc2n1-c1ccc(Cl)cc1C(c1ccccc1Cl)=NC2"
Found: 2.6

Lookup: Please supply the value of reported RALB for the item "O=C(OC[C@H]1O[C@@H](OC(=O)c2cc(O)c(O)c(OC(=O)c3cc(O)c(O)c(O)c3)c2)[C@H](OC(=O)c2cc(O)c(O)c(OC(=O)c3cc(O)c(O)c(O)c3)c2)[C@@H](OC(=O)c2cc(O)c(O)c(OC(=O)c3cc(O)c(O)c(O)c3)c2)[C@@H]1OC(=O)c1cc(O)c(O)c(OC(=O)c2cc(O)c(O)c(O)c2)c1)c1cc(O)c(O)c(OC(=O)c2cc(O)c(O)c(O)c2)c1"
Found: 3.8

Lookup: Please supply the value of reported RALB for the item "CCOc1ccc(NC(C)=O)cc1"
Found: 2.7

Lookup: Please supply the value of reported RALB for the item "CN/C(=N/CCSCc1nc[nH]c1C)NC#N"
Found: 3.5

---

Species on record: Rattus norvegicus
Assay: Open TG-GATES - Regimen: Daily Repeat
Assay type: toxicity, organism-based, Sprague-Dawley
Design: regimen Daily Repeat, gender Male, age 6 weeks
Conditions: in vivo, po, 0 mg/kg, 72 h, tissue Plasma, route gavage, dose level Control, time 3 day
property: BUN (mg/dL)
Use mg/dL as the unit, but write only the number.

Lookup: Please supply the value of reported BUN for the item "Cc1nnc2n1-c1ccc(Cl)cc1C(c1ccccc1Cl)=NC2"
Found: 15

Lookup: Please supply the value of reported BUN for the item "CCCc1cc(=O)[nH]c(=S)[nH]1"
Found: 20.6

Lookup: Please supply the value of reported BUN for the item "CC(C)NNC(=O)c1ccncc1"
Found: 18

Lookup: Please supply the value of reported BUN for the item "O=C(OC[C@H]1O[C@@H](OC(=O)c2cc(O)c(O)c(OC(=O)c3cc(O)c(O)c(O)c3)c2)[C@H](OC(=O)c2cc(O)c(O)c(OC(=O)c3cc(O)c(O)c(O)c3)c2)[C@@H](OC(=O)c2cc(O)c(O)c(OC(=O)c3cc(O)c(O)c(O)c3)c2)[C@@H]1OC(=O)c1cc(O)c(O)c(OC(=O)c2cc(O)c(O)c(O)c2)c1)c1cc(O)c(O)c(OC(=O)c2cc(O)c(O)c(O)c2)c1"
Found: 18

---

Species: Rattus norvegicus
Assay: Open TG-GATES - Regimen: Single
Format: toxicity, organism-based, Sprague-Dawley
Set-up: regimen Single, gender Male, age 6 weeks
Details: in vivo, po, 100 mg/kg, 24 h, tissue Plasma, route gavage, dose level Low
The threshold is inclusive: LDH of exactly 100 IU/L counts as YES; values below receive NO.

Lookup: Is it the case that CNC(=C[N+](=O)[O-])NCCSCc1ccc(CN(C)C)o1 [RANITIDINE] has LDH reaching or exceeding 100 IU/L?
Found: YES

Lookup: Is it the case that Cc1nnc2n1-c1ccc(Cl)cc1C(c1ccccc1Cl)=NC2 [TRIAZOLAM] has LDH reaching or exceeding 100 IU/L?
Found: NO

Lookup: Is it the case that COC(=O)C1=C(C)NC(C)=C(C(=O)OC)C1c1ccccc1[N+](=O)[O-] [NIFEDIPINE] has LDH reaching or exceeding 100 IU/L?
Found: NO

Lookup: Is it the case that CN/C(=N/CCSCc1nc[nH]c1C)NC#N [CIMETIDINE] has LDH reaching or exceeding 100 IU/L?
Found: YES

---

Organism: Rattus norvegicus
Assay: Open TG-GATES - Regimen: Daily Repeat
Assay type: toxicity, organism-based, Sprague-Dawley
Parameters: regimen Daily Repeat, gender Male, age 6 weeks
Settings: in vivo, po, 1000 mg/kg, […], tissue Blood, route gavage, dose level High, time 28 day
So I've got a bunch of compounds here, and I need their MCHC values.

Lookup: Please supply the value of reported MCHC for the item CN/C(=N/CCSCc1nc[nH]c1C)NC#N [CIMETIDINE]
Found: 34.4%

Lookup: Please supply the value of reported MCHC for the item O=C(OC[C@H]1O[C@@H](OC(=O)c2cc(O)c(O)c(OC(=O)c3cc(O)c(O)c(O)c3)c2)[C@H](OC(=O)c2cc(O)c(O)c(OC(=O)c3cc(O)c(O)c(O)c3)c2)[C@@H](OC(=O)c2cc(O)c(O)c(OC(=O)c3cc(O)c(O)c(O)c3)c2)[C@@H]1OC(=O)c1cc(O)c(O)c(OC(=O)c2cc(O)c(O)c(O)c2)c1)c1cc(O)c(O)c(OC(=O)c2cc(O)c(O)c(O)c2)c1 [TANNIC ACID]
Found: 33.5%

---

So I've got a bunch of compounds here, and I need their DBIL values.
Species: Rattus norvegicus
Experiment: Open TG-GATES - Regimen: Single
Format: toxicity, organism-based, Sprague-Dawley
Design: regimen Single, gender Male, age 6 weeks
Conditions: in vivo, po, 100 mg/kg, 9 h, tissue Plasma, route gavage, dose level Low
Use mg/dL as the unit, but write only the number.

Lookup: Please supply the value of reported DBIL for the item "CNC(=C[N+](=O)[O-])NCCSCc1ccc(CN(C)C)o1"
Found: 0.062

Lookup: Please supply the value of reported DBIL for the item "CN/C(=N/CCSCc1nc[nH]c1C)NC#N"
Found: 0.076

Lookup: Please supply the value of reported DBIL for the item "Cc1nnc2n1-c1ccc(Cl)cc1C(c1ccccc1Cl)=NC2"
Found: 0.014

Lookup: Please supply the value of reported DBIL for the item "O=C(OC[C@H]1O[C@@H](OC(=O)c2cc(O)c(O)c(OC(=O)c3cc(O)c(O)c(O)c3)c2)[C@H](OC(=O)c2cc(O)c(O)c(OC(=O)c3cc(O)c(O)c(O)c3)c2)[C@@H](OC(=O)c2cc(O)c(O)c(OC(=O)c3cc(O)c(O)c(O)c3)c2)[C@@H]1OC(=O)c1cc(O)c(O)c(OC(=O)c2cc(O)c(O)c(O)c2)c1)c1cc(O)c(O)c(OC(=O)c2cc(O)c(O)c(O)c2)c1"
Found: 0.072

Lookup: Please supply the value of reported DBIL for the item "COC(=O)C1=C(C)NC(C)=C(C(=O)OC)C1c1ccccc1[N+](=O)[O-]"
Found: 0.008

---

So I've got a bunch of molecules here, and I need their TBIL values.
Species: Rattus norvegicus
Assay: Open TG-GATES - Regimen: Single
Type: toxicity, organism-based, Sprague-Dawley
Set-up: regimen Single, gender Male, age 6 weeks
Conditions: in vivo, po, 300 mg/kg, 9 h, tissue Plasma, route gavage, dose level Middle
Use mg/dL as the unit, but write only the number.

Lookup: Please supply the value of reported TBIL for the item "O=C(OC[C@H]1O[C@@H](OC(=O)c2cc(O)c(O)c(OC(=O)c3cc(O)c(O)c(O)c3)c2)[C@H](OC(=O)c2cc(O)c(O)c(OC(=O)c3cc(O)c(O)c(O)c3)c2)[C@@H](OC(=O)c2cc(O)c(O)c(OC(=O)c3cc(O)c(O)c(O)c3)c2)[C@@H]1OC(=O)c1cc(O)c(O)c(OC(=O)c2cc(O)c(O)c(O)c2)c1)c1cc(O)c(O)c(OC(=O)c2cc(O)c(O)c(O)c2)c1"
Found: 0.5

Lookup: Please supply the value of reported TBIL for the item "CNC(=C[N+](=O)[O-])NCCSCc1ccc(CN(C)C)o1"
Found: 0.1

Lookup: Please supply the value of reported TBIL for the item "COC(=O)C1=C(C)NC(C)=C(C(=O)OC)C1c1ccccc1[N+](=O)[O-]"
Found: 0.046

Lookup: Please supply the value of reported TBIL for the item "Cc1nnc2n1-c1ccc(Cl)cc1C(c1ccccc1Cl)=NC2"
Found: 0.058

Lookup: Please supply the value of reported TBIL for the item "CN/C(=N/CCSCc1nc[nH]c1C)NC#N"
Found: 0.1
